I'd be grateful if you could share measured melting point for these entries.
Give just the number in °C; leave the unit off.

Prompt line: # return recorded melting point for entry "CCN(CC)C(=O)c1ccccc1CC(=O)c1ccccc1C"
Response line: 47

Prompt line: Please report melting point for the following molecule: "Fc1ccc(C=Nn2c(C(F)(F)F)n[nH]c2=S)cc1"
Response line: 276

Prompt line: Read the entry "Nc1ccc(O)cc1F" and write its reported melting point.
Response line: 139

Prompt line: State its melting point for this molecule: CCc1c(C)[nH]c2c1C(=O)C(CN1CCOCC1)CC2 (stereo unspecified)
Response line: 180

Prompt line: Identify measured melting point associated with "N#Cc1ccc(F)c(C(F)(F)F)c1"
Response line: 68

Prompt line: Tell us which melting point value is on record for "C[C@]12C=CC(=O)C=C1C(=O)C[C@@H]1[C@@H]2CC[C@@]2(C)[C@H]1CCC21OCCO1"
Response line: 207

Prompt line: Input "COc1ccc2c(c1)CCC2=O" , output reported melting point.
Response line: 109

Prompt line: Indicate its recorded melting point; the molecule in question is "N#Cc1ccc(C(F)(F)F)c(F)c1"
Response line: 47

Prompt line: Write down melting point measured for item "COc1ccc(F)cc1C#N"
Response line: 117

Prompt line: Respond only with melting point recorded for "O=C(Cl)c1cccnc1Cl"
Response line: 40

Prompt line: Please indicate melting point recorded for "OCc1c(F)cccc1Cl"
Response line: 43

Prompt line: Answer with the recorded melting point of "O=[N+]([O-])c1cc([N+](=O)[O-])c(/C=C/c2ccccc2)cc1/C=C/c1ccccc1" only.
Response line: 193

Prompt line: Give the value of melting point reported for the following: "O=C=Nc1cccc(C(F)(F)F)c1"
Response line: -26

Prompt line: For the molecule "Cc1ccc(NC(=O)NC(C)(C)c2ccccc2)cc1" , give its measured melting point value.
Response line: 203

Prompt line: Give me measured melting point, please, for this molecule: C/C(=N\NC(N)=O)C1CC2(C)CCC1C2(C)C (stereo unspecified)
Response line: 236

Prompt line: Dear colleague, please send me the reported melting point for "O=[N+]([O-])c1ccc(O)c(-c2cc([N+](=O)[O-])ccc2O)c1" when you can.
Response line: 186

Prompt line: Tell me measured melting point for CC(C)(C)CC(=O)OCC(=O)C12OC(C)(C)OC1CC1C3CCC4=CC(=O)C=CC4(C)C3(F)C(O)CC12C (stereo unspecified) please.
Response line: 295

Prompt line: Report melting point, nothing else, for this molecule: "Nc1cc(C(=O)O)cc([N+](=O)[O-])c1"
Response line: 216

Prompt line: Read the entry CC(C)CCCC(C)C1CCC2C3CCC4=CC(O)CCC4(C)C3CCC12C (stereo unspecified) and write its reported melting point.
Response line: 132

Prompt line: Tell me its melting point given "Clc1cccc(O[Si]23OCCN(CCO2)CCO3)c1" as the entry.
Response line: 245

Prompt line: Quote melting point reported for "Cc1c(C)c([N+](=O)[O-])c(C)c2c1C(=O)C2" please.
Response line: 164

Prompt line: Find the measured melting point of CC(C)SC1OC(CO)C(O)C(O)C1O (stereo unspecified) and report it.
Response line: 121

Prompt line: Find the measured melting point of "COC(=O)c1ccc(N=C=S)cc1" and report it.
Response line: 48

Prompt line: Using the record for "Cc1ccc(C(=O)CC#N)cc1" , state its measured melting point.
Response line: 102

Prompt line: Read off the recorded melting point for "N#Cc1ccnc(C#N)c1"
Response line: 90

Prompt line: Annotate the molecule "ON=Cc1cccnc1" with its measured melting point.
Response line: 150

Prompt line: Note down melting point recorded for "Cc1cc(I)cnc1Br"
Response line: 45

Prompt line: Look up melting point of "Nc1c(Cl)c(Cl)nc(C(=O)O)c1Cl" and report it.
Response line: 218

Prompt line: Please list melting point recorded for the molecule "COc1ccc(C=Cc2ccc(OC)cc2)cc1"
Response line: 214

Prompt line: Give reported melting point value for Cc1ccc2c(c1C)CCC1C2CCC2CC(O)CCC21C (stereo unspecified)
Response line: 188

Prompt line: Specify measured melting point for "COc1cccc(C=C2C(=O)NN=C2c2c(O)c3ccccc3n(C)c2=O)c1" .
Response line: 254

Prompt line: Supply recorded melting point for "COCCN1CCCNCC1" here.
Response line: 67

Prompt line: Look up and state reported melting point for "c1ccc2c3c([nH]c2c1)CCCCCC3"
Response line: 74

Prompt line: Give the measured melting point for "O=[N+]([O-])c1ccccc1Nc1ccccc1"
Response line: 75

Prompt line: Indicate the recorded melting point value for this molecule: "c1ccc(-c2coc(-c3ccccc3)n2)cc1"
Response line: 103

Prompt line: Item CN(C)c1ccc(C2C3=C(CC(C)(C)CC3=O)Nc3ccc4ccccc4c32)cc1 (stereo unspecified) : provide melting point
Response line: 327

Prompt line: For "Oc1ccc2c(O)cccc2c1" , write its melting point.
Response line: 138

The origin of these recorded values is a melting point compilation (Tetko et al.).
